Reported pIC50 values for a set of compounds
# Test system: Hedgehog signalling pathway
# protocol_description: Gli-reporter NIH3T3 luciferase assay (Hedgehog pathway inhibition)
# Format: cell-based
# experimental_parameters: NIH3T3; Gli-reporter NIH-3T3 cells, recombinant mouse sonic hedgehog, 24 hours, luminescence; read-out: Category (Hedgehog pathway inhibition activity, IC50)
pIC50: −log10 of the molar value.

Field: example entries. Status: answers known.
Cn1nccc1-c1nnc(N2CCC(NCc3cccc(F)c3)CC2)c2ccccc12 [Example 73] = 6.70 to 8.00
CN(Cc1ccc(F)cc1F)C1CCN(c2nnc(-c3ccnn3C)c3ccccc23)CC1 [Example 67] = 6.70 to 8.00
Cn1nccc1-c1nnc(N2CCC(NCc3ccccc3OC(F)(F)F)CC2)c2ccccc12 [Example 36] = 6.70 to 8.00
COc1ccccc1CN(C)C1CCN(c2nnc(-c3ccnn3C)c3ccccc23)CC1 [Example 61] = 5.70 to 6.70
Cn1nccc1-c1nnc(N2CCC(NCc3ccc(F)cc3C(F)(F)F)CC2)c2ccccc12 [Example 79] = > 8.00

Prompt: Request the reported pIC50 associated with Cn1nccc1-c1nnc(N2CCC(NCc3ccc(Cl)nc3C(F)(F)F)CC2)c2ccccc12 [Example 44]
Completion: > 8.00

Prompt: Request the reported pIC50 associated with COc1ccc(NC(=O)NC2CCN(c3nnc(-c4ccnn4C)c4ccccc34)CC2)cc1 [Example 45]
Completion: 6.70 to 8.00

Prompt: Request the reported pIC50 associated with CN(Cc1ccccc1)C1CCN(c2nnc(-c3ccnn3C)c3ccccc23)CC1 [Example 59]
Completion: 6.70 to 8.00

Prompt: Request the reported pIC50 associated with Cn1nccc1-c1nnc(N2CCC(NC(=O)Nc3ccccc3OC(F)(F)F)CC2)c2ccccc12 [Example 25]
Completion: > 8.00
